- experiment-description: Binary supramolecular self-assembly systems of polymer and target: guest concentration over incubation time (Comparative Example 2)
- Format: physicochemical
- measurement-setup: binary system with 0.5% polymer 101; incubation 0.5 h
Rule: Concentration of the target in the solution measured after different incubation time of 200 µg/mL or more gives true; anything lower gives false.

Known results for molecules:
{"molecule": "CCCNS(=O)(=O)Nc1ncnc(OCCOc2ncc(Br)cn2)c1-c1ccc(Br)cc1", "assigned-label": "false"}
{"molecule": "O=C1[C@@H]2[C@H]3CC[C@H](C3)[C@@H]2C(=O)N1C[C@@H]1CCCC[C@H]1CN1CCN(c2nsc3ccccc23)CC1", "assigned-label": "false"}
{"molecule": "CCOc1nc2cccc(C(=O)OC(C)OC(=O)OC3CCCCC3)c2n1Cc1ccc(-c2ccccc2-c2nnn[nH]2)cc1 (centres unmarked)", "assigned-label": "false"}
{"molecule": "CCCCC1OC(=O)c2ccccc21 (centres unmarked) [Butylphthalide]", "assigned-label": "true"}
{"molecule": "COc1cc(/C=C/C(=O)CC(=O)/C=C/c2ccc(O)c(OC)c2)ccc1O", "assigned-label": "true"}
{"molecule": "CC1(C)CCC(CN2CCN(c3ccc(C(=O)NS(=O)(=O)c4ccc(NCC5CCOCC5)c([N+](=O)[O-])c4)c(Oc4cnc5[nH]ccc5c4)c3)CC2)=C(c2ccc(Cl)cc2)C1", "assigned-label": "true"}
{"molecule": "O=C(O)[C@H]1O[C@@H](Oc2cc3oc(-c4ccc(O)cc4)cc(=O)c3c(O)c2O)[C@H](O)[C@@H](O)[C@@H]1O", "assigned-label": "true"}

Now turn to the next molecule.
Query :: Hi team, for `O=C1C[C@@H](c2ccc(O)cc2)Oc2cc(O)cc(O)c21` , is the recorded Concentration of the target in the solution measured after different incubation time at or above 200 µg/mL?
Result :: true

====

- experiment-description: Binary supramolecular self-assembly systems of polymer and target: guest concentration over incubation time (Comparative Example 2)
- Assay type: physicochemical
- measurement-setup: binary system with 0.5% polymer 107; incubation 6 h
Each item that follows carries a reported Concentration of the target in the solution measured after different incubation time.
Report the figure in µg/mL without appending any unit label.

{"compound": "CCc1cc2c(cc1N1CCC(N3CCOCC3)CC1)C(C)(C)c1[nH]c3cc(C#N)ccc3c1C2=O", "recorded-result": 2.9}

Query :: Look up Concentration of the target in the solution measured after different incubation time: `C=C(C)[C@@H]1CCC(C)=C[C@H]1c1c(O)cc(CCCCC)cc1O`
Result :: 95.7

====

- experiment-description: Binary supramolecular self-assembly systems of polymer and target: guest concentration over incubation time (Comparative Example 2)
- Type: physicochemical
- measurement-setup: binary system with 0.5% polymer 103; incubation 6 h
recorded-metric: Concentration of the target in the solution measured after different incubation time

Completed entries (count: 5):
{"compound": "CCC(C)n1ncn(-c2ccc(N3CCN(c4ccc(OCC5COC(Cn6cncn6)(c6ccc(Cl)cc6Cl)O5)cc4)CC3)cc2)c1=O (stereo not drawn)", "recorded-result": "1900 ng/mL"}
{"compound": "CC(C)OC(=O)CCC/C=C\\C[C@@H]1[C@@H](/C=C/C(F)(F)COc2ccccc2)[C@H](O)C[C@@H]1O", "recorded-result": "27400 ng/mL"}
{"compound": "CC1(C)CCC(CN2CCN(c3ccc(C(=O)NS(=O)(=O)c4ccc(NCC5CCOCC5)c([N+](=O)[O-])c4)c(Oc4cnc5[nH]ccc5c4)c3)CC2)=C(c2ccc(Cl)cc2)C1", "recorded-result": "59500 ng/mL"}
{"compound": "O=C1C[C@@H](c2ccc(O)cc2)Oc2cc(O)cc(O)c21", "recorded-result": "233500 ng/mL"}
{"compound": "CCc1cc2c(cc1N1CCC(N3CCOCC3)CC1)C(C)(C)c1[nH]c3cc(C#N)ccc3c1C2=O", "recorded-result": "1300 ng/mL"}

Shift focus to the following entry.
Query :: For `CC(=O)c1c(C)c2cnc(Nc3ccc(N4CCNCC4)cn3)nc2n(C2CCCC2)c1=O` , what is its reported Concentration of the target in the solution measured after different incubation time?
Result :: 109600 ng/mL
